Target: T1, human myostatin (mature, recombinant; R&D Systems) (human, UniProt O14793 267-375)
T1 construct: biotinylated in the mRNA display selection; also called GDF-8; mature myostatin
T1 sequence: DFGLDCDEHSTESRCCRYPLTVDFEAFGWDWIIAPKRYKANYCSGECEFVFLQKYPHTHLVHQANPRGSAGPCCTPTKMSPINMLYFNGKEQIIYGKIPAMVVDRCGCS
Assay: competitive HTRF (1889E01/myostatin/ActRIIb-Fc sandwich)
pIC50: −log10 of the molar value.
MEASURED ENDPOINT: pIC50

Known results for binders:
[
  {
    "BINDER": "3008_G03 (designed binder) MGVSDVPRDLEVVAATPTSLLISWSLPHPGLGHYYRITYGETGGNSPVQEFTVPGRGVTATISGLKPGVDYTITVYAVTITPETIIVYKPISINYRTEIDKPSQHHHHHH",
    "pIC50": 9.89
  },
  {
    "BINDER": "ATI-1267 [N-ethylmaleimide] (designed binder, N-ethylmaleimide on the Cys of the EGSGC tail, cysteine mutant of 2525_D02) MGVSDVPRDLEVVAATPTSLLISWTLPHAGRAHYYRITYGETGGNSPVQEFTVPGRGVTATISGLKPGVDYTITVYAVTVTTTSVILYKPISINYRTEGSGCHHHHHH",
    "pIC50": 9.92
  }
]

P = 3116_C01 (designed binder) MGVSDVPRDLEVVAATPTSLLISWSLPNPGIAHYYRITYGETGGNSPVQEFTVPGRGVTATISGLKPGVDYTITVYAVTLTGSDTIFYKPISINYRTEIDKPSQHHHHHH
Q = 3006_A10 (designed binder) MGVSDVPRDLEVVAATPTSLLISWDAPGGLARYYRITYGETGGNSPVQEFTVIGRGSTATISGLKPGVDYTITVYAVTIDRDGVNHFAPISINYRTEIDKPSQHHHHHH
[ask] # min-compare on pIC50 between P and Q Refer to your chosen entry by its label in the reply.
[reply] P
